# pIC50 per record follows
Target: KRAS G12V (Homo sapiens, UniProt P01116, G12V)
Sequence (P01116 1-188 isoform P01116-2 G12V): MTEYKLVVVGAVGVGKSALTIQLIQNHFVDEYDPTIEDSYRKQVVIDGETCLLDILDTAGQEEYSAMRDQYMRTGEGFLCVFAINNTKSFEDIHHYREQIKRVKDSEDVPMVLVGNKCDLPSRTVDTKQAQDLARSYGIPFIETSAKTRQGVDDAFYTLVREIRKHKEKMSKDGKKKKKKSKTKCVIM
Experiment: GDP-GTP exchange assay (bodipy-GDP/GppNHp, SOS1), KRAS G12V
Details: bodipy-loaded KRAS G12V 2.5 nM, 3 hours incubation after adding GppNHp-SOS1; read-out: G12V_exchange IC50
pIC50: −log10 of the molar value.

Completed entries (count: 2):
* CC(=O)N1CC[C@H](n2nnc3c(O[C@@H](C)[C@@H]4CCCN4C)nc4c(F)c(-c5cccc6cccc(C#N)c56)c(Cl)cc4c32)C[C@H]1CC#N [Example 44] | ≥ 7.00
* CCc1nc2c(C)nc3c(F)c(-c4cc(O)cc5ccccc45)c(CCC#N)cc3c2n1C1C2CNC1C2 (single isomer, unassigned) [Example 23a] | ≥ 7.00

Field: next molecule
Kindly state the measured pIC50 obtained for CCc1nc2c(N3CC(N(C)C)C3)nc3c(F)c(-c4cc(O)cc5ccccc45)c(C(CC#N)n4cc(CO)cn4)cc3c2n1C1C2CNC1C2 (single isomer, unassigned) [Example 8b] with KRAS G12V (Homo sapiens, UniProt P01116, G12V). 6.00 to 7.00
